test system: Yap1 mRNA; test: Antisense inhibition of human Yap1 in A-431 cells by cEt gapmers, single dose (Example 2, RTS4814); format: cell-based; details: Table 19; A-431 cells, 5,000 cells per well, free uptake, 2,000 nM modified oligonucleotide, approx. 48 hours; RTS4814; normalized to RIBOGREEN; Yap1 mRNA as percent of untreated control
Strand notation (5' to 3'): a small letter for the sugar, then the base; units joined by * are phosphorothioate-linked, units joined directly phosphodiester-linked; [ ] holds rarer units or linkages, { } end groups; capitals alone tell only the bases. k = constrained ethyl (cEt); [5mC] = 5-methylcytosine; d = 2'-deoxy (DNA)
Would you mind labelling by YAP1 (% UTC)? At or over 30 % UTC is label 1, under is label 0.

Consider the following illustrative entries.
In [3]: df
Out[3]:
                                  substance    group
0  1075397 (antisense k[5mC]*kA*kT*dT*dA*dT*d[5mC]*dG*d[5mC]*dA*d[5mC]*dA*dT*kA*k[5mC]*kA) [Compound 1075397]  label 1
1  1074341 (antisense kA*kT*k[5mC]*d[5mC]*d[5mC]*dG*dG*dG*dA*dG*dA*dA*dG*kA*k[5mC]*kA) [Compound 1074341]  label 1

Answer whether YAP1 (% UTC) of 1075653 (k[5mC]*kA*kT*dA*dA*dA*d[5mC]*dT*d[5mC]*dT*dG*d[5mC]*dT*kG*kT*k[5mC]; antisense) [Compound 1075653] is greater than or equal to 30 % UTC.
label 1

Tell me whether YAP1 (% UTC) is at least 30 % UTC here: 1076037 (k[5mC]*kT*kT*dA*dA*dA*dT*dT*d[5mC]*dT*d[5mC]*dT*dT*kA*k[5mC]*kG; antisense) [Compound 1076037]
label 0

In plain terms: is recorded YAP1 (% UTC) at least 30 % UTC for 1075749 (kA*kA*kT*dT*dA*dT*dG*dA*dA*dT*dG*dA*dT*kG*kG*kG; antisense) [Compound 1075749] ?
label 0

Could you tell me if the measured YAP1 (% UTC) of 1074149 (antisense kG*k[5mC]*k[5mC]*dG*dA*dG*dG*dT*dG*dG*dA*dG*dA*kA*kG*k[5mC]) [Compound 1074149] reaches 30 % UTC or more?
label 1

For this substance, is measured YAP1 (% UTC) 30 % UTC or higher? 1075333 (kA*kG*kT*dT*dA*dA*d[5mC]*dA*dA*dA*dG*d[5mC]*dG*kG*kG*kT; antisense) [Compound 1075333]
label 0

Entry 1076133 (k[5mC]*kA*kT*dA*d[5mC]*dT*dA*dA*dT*dT*dT*dG*dG*kT*kA*kA; antisense) [Compound 1076133] : is its YAP1 (% UTC) no less than 30 % UTC?
label 1

Say whether 1074245 (antisense kA*kG*kA*dA*dG*dT*dA*dT*d[5mC]*dT*d[5mC]*dT*dG*kA*k[5mC]*k[5mC]) [Compound 1074245] shows YAP1 (% UTC) of 30 % UTC or more.
label 0

Threshold query (YAP1 (% UTC) >= 30 % UTC) on 1075493 (antisense kA*kG*kA*d[5mC]*dA*dA*dG*dG*dG*dA*dT*dG*d[5mC]*kT*kA*kA) [Compound 1075493]
label 1

Could you please find out whether 1075877 (k[5mC]*kT*kG*dG*dA*dA*dA*dA*dG*dT*dA*d[5mC]*dA*kT*kT*k[5mC]; antisense) [Compound 1075877] has YAP1 (% UTC) that meets 30 % UTC or exceeds it?
label 0

Could you verify whether the entry 1074981 (antisense kT*kT*kA*dT*dT*dG*d[5mC]*d[5mC]*dA*dG*dT*dT*d[5mC]*kT*kT*kG) [Compound 1074981] shows YAP1 (% UTC) of no less than 30 % UTC?
label 0

Answer whether YAP1 (% UTC) of 1075781 (k[5mC]*kA*kT*dA*dT*dA*dT*dT*dG*dT*dG*dA*d[5mC]*kT*kT*k[5mC]; antisense) [Compound 1075781] is greater than or equal to 30 % UTC.
label 0
